shrunken log2 fold change overview
System: Escherichia coli TOP10;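 note: peptides expressed intracellularly from a pBAD plasmid library in pooled LB shake-flask culture, induced with 0.3% L-arabinose, DNA abundance read by NGS, three biological replicates, DESeq2 with apeglm shrinkage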
Assay: shrunken log2 fold change of peptide-encoding DNA abundance (4.5 h post-induction vs induction); higher = less antimicrobial activity (less host growth inhibition)
Settings: time post-induction: 4.5 h; library: site-saturation at positions 5, 18, 19, 20
# respond with the number and nothing more

With Escherichia coli TOP10 as the test system, `RRIRHRPPRLPRPRPRPRQEPRP` showed shrunken log2 fold change of 0.0426

With Escherichia coli TOP10 as the test system, `RRIRTRPPRLPRPRPRPFCDPRP` showed shrunken log2 fold change of -0.268

With Escherichia coli TOP10 as the test system, `RRIRKRPPRLPRPRPRPHAVPRP` showed shrunken log2 fold change of 0.132

With Escherichia coli TOP10 as the test system, `RRIRYRPPRLPRPRPRPGHFPRP` showed shrunken log2 fold change of -0.0316

With Escherichia coli TOP10 as the test system, `RRIRMRPPRLPRPRPRPEQKPRP` showed shrunken log2 fold change of -0.0148

---
With Escherichia coli TOP10 as the test system, `RRIRGRPPRLPRPRPRPKIQPRP` showed shrunken log2 fold change of 0.369

With Escherichia coli TOP10 as the test system, `RRIRCRPPRLPRPRPRPWYNPRP` showed shrunken log2 fold change of -1.45

With Escherichia coli TOP10 as the test system, `RRIRERPPRLPRPRPRPYFLPRP` showed shrunken log2 fold change of -0.437
